Parameter Drug uptake: see the listing below.
tested on: Heart; experiment: Biodistribution in overnight fasted Sprague-Dawley rat heart pellet fraction at 0.7 to 1.4 MBq, iv preincubated with POCA for 2 hrs before compound administration measured at 120 mins post treatment by Folch-type extraction method; format: ADME, organism-based; conditions: in vivo
API: value field is a number in %; no unit string.

For orientation, consider the following solved cases.
Inquiry: What value of Drug uptake has been recorded for this entry: O=C(O)CCSCCCCCCCCCCCC[18F]
Reply text: 24.47

Inquiry: // query Drug uptake value for entry O=C(O)CCCCSCCCCCCCCCCCC[18F]
Reply text: 22.48

Others:
Inquiry: Request the reported Drug uptake associated with O=C(O)CCSCCCC/C=C\CCCCCCCC[18F]
Reply text: 29.14

Inquiry: Need Drug uptake, item O=C(O)CCSCCCCCCCCCCCCCC[18F]
Reply text: 21.68

---

test system: Heart; assay: Biodistribution in overnight fasted Sprague-Dawley rat heart organic fraction at 0.7 to 1.4 MBq, iv at 30 mins by Folch-type extraction method; format: ADME, organism-based; conditions: in vivo, 0.5 h
observable: Drug uptake (%)
Your answer should be a plain number; it is taken to be in %.

Inquiry: Report Drug uptake for O=C(O)CCSCCCCCCCCCCCC[18F] please.
Reply text: 38.56

Continuing:
Inquiry: I would be grateful if you could share the reported Drug uptake for O=C(O)CCCCSCCCCCCCCCCCC[18F] .
Reply text: 25.81

Inquiry: Quick check: Drug uptake of O=C(O)CCSCCCC/C=C\CCCCCCCC[18F] ?
Reply text: 8.46

Inquiry: What does the data say about its Drug uptake? Entry: O=C(O)CCSCCCCCCCCCCCCCC[18F]
Reply text: 17.29

---

system: Muscle tissue; experiment: Biodistribution in overnight fasted Sprague-Dawley rat muscle aqueous fraction at 0.7 to 1.4 MBq, iv at 120 mins by Folch-type extraction method; assay type: ADME, organism-based; settings: in vivo, 2 h
observable: Drug uptake (%)
# value in %; strip the unit string

Solved entries (count: 3):
Inquiry: Param readout= Drug uptake; system= Muscle tissue; entry= O=C(O)CCSCCCCCCCCCCCC[18F] ; returns value.
Reply text: 16.17

Inquiry: Tell me reported Drug uptake for O=C(O)CCSCCCC/C=C\CCCCCCCC[18F] , tested with Muscle tissue.
Reply text: 9.91

Inquiry: Provide the documented Drug uptake with Muscle tissue as the system for O=C(O)CCSCCCCCCCCCCCCCC[18F]
Reply text: 11.58

Further cases:
Inquiry: Can you look up Drug uptake on Muscle tissue for O=C(O)CCCCSCCCCCCCCCCCC[18F] ?
Reply text: 18.18

---

tested on: Muscle tissue; test: Biodistribution in overnight fasted Sprague-Dawley rat muscle aqueous fraction at 0.7 to 1.4 MBq, iv at 30 mins by Folch-type extraction method; assay type: ADME, organism-based; conditions: in vivo, 0.5 h
observable: Drug uptake

Inquiry: So what's the measured Drug uptake for this one? O=C(O)CCSCCCCCCCCCCCCCC[18F]
Reply text: 28.99%

Inquiry: Query: Drug uptake; subject: O=C(O)CCSCCCCCCCCCCCC[18F]
Reply text: 23.24%

Inquiry: Sample O=C(O)CCSCCCC/C=C\CCCCCCCC[18F] — what was its Drug uptake?
Reply text: 18.79%

Inquiry: Fill in: Drug uptake of O=C(O)CCCCSCCCCCCCCCCCC[18F] is ___
Reply text: 16.49%

---

test system: Muscle tissue; assay: Biodistribution in overnight fasted Sprague-Dawley rat muscle pellet fraction at 0.7 to 1.4 MBq, iv preincubated with POCA for 2 hrs before compound administration measured at 30 mins post treatment by Folch-type extraction method; assay type: ADME, organism-based; conditions: in vivo, 0.5 h
observable: Drug uptake (%)
State the answer as a number, implicitly in %.

Consider the worked cases shown below.
Inquiry: Field: Drug uptake (Muscle tissue). Entry: O=C(O)CCSCCCCCCCCCCCC[18F]
Reply text: 32.63

Inquiry: Value wanted: Drug uptake (Muscle tissue) of entry O=C(O)CCSCCCCCCCCCCCCCC[18F]
Reply text: 27.04

Inquiry: Hello, I am looking for reported Drug uptake with Muscle tissue for O=C(O)CCCCSCCCCCCCCCCCC[18F] . Could you help?
Reply text: 48.85

Below: the item to evaluate.
Inquiry: Please state recorded Drug uptake (tested on Muscle tissue) of O=C(O)CCSCCCC/C=C\CCCCCCCC[18F]
Reply text: 32.74

---

test system: Liver; assay: Drug uptake in overnight fasted Sprague-Dawley rat liver at 9 to 11 MBq, iv at 5 mins by microPET analysis; assay type: ADME, organism-based; conditions: in vivo
observable: Drug uptake

Inquiry: Using the record for O=C(O)CCSCCCCCCCCCCCC[18F] , report its Drug uptake.
Reply text: Active

Inquiry: Drug uptake lookup needed for O=C(O)CCSCCCCCCCCCCCCCC[18F] , thanks.
Reply text: Active

Inquiry: Give its Drug uptake value. Item: O=C(O)CCCCSCCCCCCCCCCCC[18F]
Reply text: Active

Inquiry: Request the reported Drug uptake associated with O=C(O)CCSCCCC/C=C\CCCCCCCC[18F]
Reply text: Active

---

tested on: Muscle tissue; assay: Biodistribution in overnight fasted Sprague-Dawley rat muscle organic fraction at 0.7 to 1.4 MBq, iv at 120 mins by Folch-type extraction method; assay type: ADME, organism-based; settings: in vivo, 2 h
observable: Drug uptake (%)
Write down the numeric answer in % and omit the unit.

Inquiry: Record lookup: for Muscle tissue, what Drug uptake belongs to O=C(O)CCSCCCCCCCCCCCCCC[18F] ?
Reply text: 48.9

Inquiry: Request - read-out Drug uptake | tested on Muscle tissue | molecule O=C(O)CCSCCCC/C=C\CCCCCCCC[18F]
Reply text: 21.98

Inquiry: Hello, I am looking for reported Drug uptake with Muscle tissue for O=C(O)CCCCSCCCCCCCCCCCC[18F] . Could you help?
Reply text: 39.74

Shift focus to the following entry.
Inquiry: Reported Drug uptake for Muscle tissue, given O=C(O)CCSCCCCCCCCCCCC[18F] ?
Reply text: 34

---

tested on: Bone; assay: Drug uptake in overnight fasted Sprague-Dawley rat bone at 0.7 to 1.4 MBq, iv preincubated with POCA for 2 hrs before compound administration measured at 120 mins post treatment; type: ADME, organism-based, Bone element; settings: in vivo
Below, each entry is listed with its recorded Drug uptake.
Value expressed in %IDKg/g; do not type the unit.

Observe how each entry below is paired with its result.
Inquiry: Requested field: Drug uptake. Item: O=C(O)CCSCCCCCCCCCCCC[18F]
Reply text: 0.6549

Inquiry: What does the record list as Drug uptake for O=C(O)CCSCCCCCCCCCCCCCC[18F] ?
Reply text: 0.4042

Inquiry: Query: Drug uptake; subject: O=C(O)CCSCCCC/C=C\CCCCCCCC[18F]
Reply text: 0.299

Turning to the following compound.
Inquiry: GET /values?readout=Drug uptake&item= O=C(O)CCCCSCCCCCCCCCCCC[18F]
Reply text: 0.2104

---

system: Liver; assay: Drug uptake in overnight fasted Sprague-Dawley rat liver at 0.7 to 1.4 MBq, iv at 120 mins; assay type: ADME, organism-based; conditions: in vivo, 2 h
observable: Drug uptake (%IDKg/g)
Write it as a number; the unit %IDKg/g goes unstated.

Known results for molecules:
Inquiry: Fill in: Drug uptake of O=C(O)CCSCCCC/C=C\CCCCCCCC[18F] is ___
Reply text: 0.8488

Inquiry: Entry O=C(O)CCSCCCCCCCCCCCC[18F] has what Drug uptake?
Reply text: 0.47

Inquiry: Report Drug uptake for O=C(O)CCCCSCCCCCCCCCCCC[18F] please.
Reply text: 0.7548

Further cases:
Inquiry: Fill blank: measured Drug uptake of the molecule O=C(O)CCSCCCCCCCCCCCCCC[18F] is ____.
Reply text: 0.3759

---

Drug uptake for assorted molecules
tested on: Blood; assay: Drug uptake in overnight fasted Sprague-Dawley rat blood at 0.7 to 1.4 MBq, iv preincubated with POCA for 2 hrs before compound administration measured at 120 mins post treatment; format: ADME, organism-based; settings: in vivo
Number only, in %IDKg/g; omit the unit.

# example entries with known answers
Inquiry: Request the reported Drug uptake associated with O=C(O)CCSCCCC/C=C\CCCCCCCC[18F]
Reply text: 0.0141

Inquiry: Name the reported Drug uptake value associated with the molecule O=C(O)CCCCSCCCCCCCCCCCC[18F]
Reply text: 0.0271

---
Inquiry: Endpoint output: Drug uptake of O=C(O)CCSCCCCCCCCCCCC[18F] . Value?
Reply text: 0.0392

Inquiry: Requested read-out: Drug uptake. Entry: O=C(O)CCSCCCCCCCCCCCCCC[18F]
Reply text: 0.0125

---

Drug uptake for assorted compounds
system: Heart; experiment: Biodistribution in overnight fasted Sprague-Dawley rat heart aqueous fraction at 0.7 to 1.4 MBq, iv preincubated with POCA for 2 hrs before compound administration measured at 120 mins post treatment by Folch-type extraction method; format: ADME, organism-based; conditions: in vivo
Respond with the bare value in %.

Worked examples, 3 compounds total:
Inquiry: Give the measured Drug uptake of O=C(O)CCSCCCC/C=C\CCCCCCCC[18F] .
Reply text: 4.19

Inquiry: # get_value(readout='Drug uptake', item= O=C(O)CCSCCCCCCCCCCCC[18F] )
Reply text: 7.53

Inquiry: Fill blank: measured Drug uptake of the compound O=C(O)CCSCCCCCCCCCCCCCC[18F] is ____.
Reply text: 3.39

Next compound, Drug uptake to be filled in.
Inquiry: Suppose we examine the compound O=C(O)CCCCSCCCCCCCCCCCC[18F] ; what Drug uptake value has been reported?
Reply text: 3.3
